Experimental Target: FSH receptor (Homo sapiens, UniProt P23945)
Procedure Summary: FSH Receptor Radioligand Membrane Binding Standard Pharmacological Test Procedure
Design: expressed in transfected cells
Conditions Used: [125I]FSH binding to membranes of CHO cells stably transfected with the human FSH receptor
The threshold is 4 µM. Values of IC50 beneath it are tagged MET; values meeting or exceeding it are tagged NOT MET.

Worked examples, 3 molecules total:
>  <Molecule>
CS(=O)(=O)Cc1ccc(C(=O)Nc2ccc(/C=C/c3ccc(NC(=O)c4ccc(S(C)(=O)=O)cc4)cc3S(=O)(=O)O)c(S(=O)(=O)O)c2)cc1 [Example 40b]

>  <Label>
NOT MET

$$$$
>  <Molecule>
CS(=O)(=O)c1ccc(C(=O)Nc2ccc(/C=C/c3ccc(NC(=O)c4ccc(S(C)(=O)=O)c([N+](=O)[O-])c4)cc3S(=O)(=O)O)c(S(=O)(=O)O)c2)cc1[N+](=O)[O-] [Example 30c]

>  <Label>
MET

$$$$
>  <Molecule>
COCCN(CCOC)c1ccc(C(=O)Nc2ccc(/C=C/c3ccc(NC(=O)c4ccc(N(CCOC)CCOC)c(S(=O)(=O)N5CCOCC5)c4)cc3S(=O)(=O)O)c(S(=O)(=O)O)c2)cc1S(=O)(=O)N1CCOCC1 [Example 32m]

>  <Label>
NOT MET

$$$$

# check: IC50 < 4 µM for CSc1ccc(C(=O)Nc2ccc(C=Cc3ccc(NC(=O)c4ccc(SC)c(S(=O)(=O)N5CCOCC5)c4)cc3S(=O)(=O)O)cc2)cc1S(=O)(=O)N1CCOCC1
NOT MET

----------
Experimental Target: FSH receptor (Homo sapiens, UniProt P23945)
Sequence (P23945 18-695): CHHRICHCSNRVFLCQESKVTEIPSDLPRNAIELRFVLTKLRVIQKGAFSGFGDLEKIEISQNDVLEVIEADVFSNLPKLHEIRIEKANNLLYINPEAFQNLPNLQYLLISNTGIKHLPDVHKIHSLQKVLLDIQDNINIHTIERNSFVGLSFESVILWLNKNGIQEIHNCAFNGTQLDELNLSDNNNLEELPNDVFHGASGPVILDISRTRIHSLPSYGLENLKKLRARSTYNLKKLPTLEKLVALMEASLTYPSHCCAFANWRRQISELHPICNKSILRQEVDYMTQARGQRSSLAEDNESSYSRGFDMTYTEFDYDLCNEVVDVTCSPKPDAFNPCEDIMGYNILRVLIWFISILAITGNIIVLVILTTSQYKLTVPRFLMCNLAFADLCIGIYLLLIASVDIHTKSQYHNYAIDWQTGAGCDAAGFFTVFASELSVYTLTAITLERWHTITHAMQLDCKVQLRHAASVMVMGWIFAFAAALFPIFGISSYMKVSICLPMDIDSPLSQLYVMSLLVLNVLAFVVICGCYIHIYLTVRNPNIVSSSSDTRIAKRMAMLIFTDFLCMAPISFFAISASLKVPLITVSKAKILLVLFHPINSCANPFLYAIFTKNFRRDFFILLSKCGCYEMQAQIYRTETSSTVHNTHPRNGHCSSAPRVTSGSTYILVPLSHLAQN
Procedure Summary: FSH Receptor Radioligand Membrane Binding Standard Pharmacological Test Procedure
Set-up: expressed in transfected cells
Conditions Used: [125I]FSH binding to membranes of CHO cells stably transfected with the human FSH receptor
Rule: IC50 below 4 µM gives yes, anything at or above gives no.

Example entries begin here.
>  <Compound>
O=C(CS(=O)(=O)c1ccc(C(=O)Nc2ccc(/C=C/c3ccc(NC(=O)c4ccc(S(=O)(=O)CC(=O)NCCO)cc4)cc3S(=O)(=O)O)c(S(=O)(=O)O)c2)cc1)NCCO [Example 37a]

>  <Label>
yes

$$$$
>  <Compound>
CCN(CC)S(=O)(=O)c1cc(C(=O)Nc2ccc(/C=C/c3ccc(NC(=O)c4ccc(OC)c(S(=O)(=O)N(CC)CC)c4)cc3S(=O)(=O)O)c(S(=O)(=O)O)c2)ccc1OC [Example 33c]

>  <Label>
no

$$$$
>  <Compound>
COc1ccc(C(=O)Nc2ccc(CCc3ccc(NC(=O)c4ccc(OC)c(S(=O)(=O)N5CCCC5)c4)cc3S(=O)(=O)O)c(S(=O)(=O)O)c2)cc1S(=O)(=O)N1CCCC1 [Example 43g]

>  <Label>
no

$$$$

Would you kindly verify if IC50 of COCCOc1ccc(C(=O)Nc2ccc(/C=C/c3ccc(NC(=O)c4ccc(S(C)(=O)=O)cc4)cc3S(=O)(=O)O)c(S(=O)(=O)O)c2)cc1 [Example 40a] is strictly less than 4 µM?
no

Let us now turn to C=CCS(=O)(=O)c1ccc(C(=O)Nc2ccc(/C=C/c3ccc(NC(=O)c4ccc(S(=O)(=O)CC=C)cc4)cc3S(=O)(=O)O)c(S(=O)(=O)O)c2)cc1 [Example 32a]
yes

Thanks! And COc1ccc(C(=O)Nc2ccc(/C=C/c3ccc(NC(=O)c4ccc(OC)c(S(=O)(=O)N5CCCCC5)c4)cc3S(=O)(=O)O)c(S(=O)(=O)O)c2)cc1S(=O)(=O)N1CCCCC1 [Example 30h] ?
no

What about this compound? CCSc1ccc(C(=O)Nc2ccc(/C=C/c3ccc(NC(=O)c4ccc(SCC)c(S(=O)(=O)N5CCOCC5)c4)cc3S(=O)(=O)O)c(S(=O)(=O)O)c2)cc1S(=O)(=O)N1CCOCC1 [Example 32i]
yes

----------
Please provide measured pIC50 for the entries that follow.
Experimental Target: FSH receptor (Homo sapiens, UniProt P23945)
Sequence (P23945 18-695): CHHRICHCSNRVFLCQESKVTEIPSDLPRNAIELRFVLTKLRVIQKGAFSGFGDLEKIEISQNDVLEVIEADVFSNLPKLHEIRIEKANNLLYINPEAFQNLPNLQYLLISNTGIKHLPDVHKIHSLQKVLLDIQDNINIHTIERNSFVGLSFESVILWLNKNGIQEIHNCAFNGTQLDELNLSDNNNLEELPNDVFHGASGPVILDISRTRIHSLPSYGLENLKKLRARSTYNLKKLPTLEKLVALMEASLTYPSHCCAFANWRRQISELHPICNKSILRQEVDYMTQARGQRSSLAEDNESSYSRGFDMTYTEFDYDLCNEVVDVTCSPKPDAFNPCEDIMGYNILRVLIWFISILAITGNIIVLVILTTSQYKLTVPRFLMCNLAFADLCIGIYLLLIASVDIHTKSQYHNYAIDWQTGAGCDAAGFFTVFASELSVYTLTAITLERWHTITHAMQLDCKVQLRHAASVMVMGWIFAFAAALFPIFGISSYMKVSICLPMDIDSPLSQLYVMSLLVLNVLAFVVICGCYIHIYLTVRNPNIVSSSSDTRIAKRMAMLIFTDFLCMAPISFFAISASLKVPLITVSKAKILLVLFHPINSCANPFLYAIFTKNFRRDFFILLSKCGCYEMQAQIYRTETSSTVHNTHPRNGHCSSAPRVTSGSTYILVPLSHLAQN
Procedure Summary: In Vitro Bio-test Procedure of Agonists and Antagonists to the FSH Receptor (cAMP accumulation in CHO-3D2 cells)
Assay type: cell-based
Design: expressed in transfected cells; host or cells: CHO-3D2 cells
Numbers only, as −log10 of the molar value.

Here is how some compounds turned out for pIC50.
>  <Compound>
COc1ccc(C(=O)Nc2ccc(CCc3ccc(NC(=O)c4ccc(OC)c(S(=O)(=O)N5CCCC5)c4)cc3S(=O)(=O)O)c(S(=O)(=O)O)c2)cc1S(=O)(=O)N1CCCC1 [Example 43g]

>  <pIC50>
4.92

$$$$
>  <Compound>
COCCNS(=O)(=O)c1cc(C(=O)Nc2ccc(/C=C/c3ccc(NC(=O)c4ccc(S(C)(=O)=O)c([N+](=O)[O-])c4)cc3S(=O)(=O)O)c(S(=O)(=O)O)c2)ccc1OC [Example 30f]

>  <pIC50>
5.51

$$$$
>  <Compound>
COc1ccc(C(=O)Nc2ccc(/C=C/c3ccc(NC(=O)c4ccc(OC)c(S(=O)(=O)NCCN5CCOCC5)c4)cc3S(=O)(=O)O)c(S(=O)(=O)O)c2)cc1S(=O)(=O)NCCN1CCOCC1 [Example 30n]

>  <pIC50>
5.26

$$$$
>  <Compound>
COc1ccc(C(=O)Nc2ccc(CCc3ccc(NC(=O)c4ccc(OC)c(S(=O)(=O)N5CCCCC5)c4)cc3S(=O)(=O)O)c(S(=O)(=O)O)c2)cc1S(=O)(=O)N1CCCCC1 [Example 43b]

>  <pIC50>
4.55

$$$$
>  <Compound>
COCCOc1ccc(C(=O)Nc2ccc(/C=C/c3ccc(NC(=O)c4ccc(OC)c(S(=O)(=O)N5CCOCC5)c4)cc3S(=O)(=O)O)c(S(=O)(=O)O)c2)cc1 [Example 42]

>  <pIC50>
5.57

$$$$
>  <Compound>
COc1ccc(C(=O)Nc2ccc(/C=C/c3ccc(NC(=O)c4ccc(OC)c(S(=O)(=O)N5CCS(=O)(=O)CC5)c4)cc3S(=O)(=O)O)c(S(=O)(=O)O)c2)cc1S(=O)(=O)N1CCS(=O)(=O)CC1 [Example 30k]

>  <pIC50>
5.82

$$$$
>  <Compound>
COc1ccc(C(=O)Nc2ccc(/C=C/c3ccc(NC(=O)c4ccc(OC)c(S(=O)(=O)N5CCN(C=O)CC5)c4)cc3S(=O)(=O)O)c(S(=O)(=O)O)c2)cc1S(=O)(=O)N1CCN(C=O)CC1 [Example 34b]

>  <pIC50>
5.77

$$$$
>  <Compound>
COCCOCCSc1ccc(C(=O)Nc2ccc(/C=C/c3ccc(NC(=O)c4ccc(SCCOCCOC)c(S(=O)(=O)N5CCOCC5)c4)cc3S(=O)(=O)O)c(S(=O)(=O)O)c2)cc1S(=O)(=O)N1CCOCC1 [Example 32o]

>  <pIC50>
6.00

$$$$
>  <Compound>
CS(=O)(=O)c1ccc(C(=O)Nc2ccc(/C=C/c3ccc(NC(=O)c4ccc(S(C)(=O)=O)cc4)cc3S(=O)(=O)O)c(S(=O)(=O)O)c2)cc1 [Example 30q]

>  <pIC50>
4.92

$$$$
>  <Compound>
C=CCS(=O)(=O)c1ccc(C(=O)Nc2ccc(/C=C/c3ccc(NC(=O)c4ccc(S(=O)(=O)CC=C)cc4)cc3S(=O)(=O)O)c(S(=O)(=O)O)c2)cc1 [Example 32a]

>  <pIC50>
5.64

$$$$

For each entry beneath this line, provide reported pIC50.
1. CCS(=O)(=O)c1ccc(C(=O)Nc2ccc(/C=C/c3ccc(NC(=O)c4ccc(S(=O)(=O)CC)cc4)cc3S(=O)(=O)O)c(S(=O)(=O)O)c2)cc1 [Example 32f]
2. O=C(Nc1ccc(/C=C/c2ccc(NC(=O)c3ccc(OC4CCOCC4)c(S(=O)(=O)N4CCOCC4)c3)cc2S(=O)(=O)O)c(S(=O)(=O)O)c1)c1ccc(OC2CCOCC2)c(S(=O)(=O)N2CCOCC2)c1 [Example 30r]
3. COc1ccc(C(=O)Nc2ccc(CCc3ccc(NC(=O)c4ccc(OC)c(S(=O)(=O)N5CCOCC5)c4)cc3S(=O)(=O)O)c(S(=O)(=O)O)c2)cc1S(=O)(=O)N1CCOCC1 [Example 30p]
4. COc1ccc(C(=O)Nc2ccc(/C=C/c3ccc(NC(=O)c4ccc(OC)c(S(=O)(=O)N5CCCCCC5)c4)cc3S(=O)(=O)O)c(S(=O)(=O)O)c2)cc1S(=O)(=O)N1CCCCCC1 [Example 33f]

5.38
5.70
4.96
4.96

Provenance of the data: patent US6355633B1
